Entries annotated with measured IC50
Test system: HEK293;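 note: HEK-293-T cells carrying an NF-kB luciferase reporter; cells exposed to compound overnight before the viability read; potency for loss of cell viability meaning cytotoxicity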
Assay: cells
Type: functional, cell-based
Conditions: Homo sapiens
Calls of active or inactive are those of the source.
Measured attribute: IC50

{"Substance smiles": "Cc1ccc(NC(=O)CSc2ncnc3ccccc23)cc1S(=O)(=O)N1CCCCC1", "Result": "6.83 µM (active)"}
{"Substance smiles": "COc1ccc(-c2nnc(NC(=O)c3ccc(S(=O)(=O)N4CCc5ccccc5C4)cc3)o2)cc1", "Result": "> 20 µM (inactive)"}
{"Substance smiles": "Cc1oc(-c2ccccc2Cl)nc1CSc1nc(O)c2c(n1)CCCC2", "Result": "> 20 µM (inactive)"}
{"Substance smiles": "Cc1ccc(C(=O)NC(=C(Cl)Cl)S(=O)(=O)c2ccc(C)cc2)cc1", "Result": "> 20 µM (inactive)"}

* * *

Entries and their measured EC50 follow.
Assay: inhibitors of firefly luciferase expression or activity, dose response, H4 neuroglioma cells, luminescence (AID 1990)
Format: functional, cell-based
Calls of active or inactive are those of the source.
Measured attribute: EC50

{"Substance smiles": "Cc1ccc(C)c(OCCn2cc(/C=C(\\C#N)C(=O)NCc3ccco3)c3ccccc32)c1", "Result": "> 120 µM (not active)"}
{"Substance smiles": "Cc1ccc(NC(=O)CN(C)C(S)=NC2CC2)cc1", "Result": "> 120 µM (not active)"}
{"Substance smiles": "CCN1/C(=C/C(C)=C/c2sc3ccccc3[n+]2CC)Sc2ccccc21", "Result": "< 0.1 µM (active)"}
{"Substance smiles": "Oc1ccc(/C=N/Nc2nc(-c3ccccc3F)nc3ccccc23)c(O)c1", "Result": "23.2 µM (active)"}
{"Substance smiles": "CCOC(=O)c1nn(-c2ccc(C)c(C)c2)c(=O)c2c(N)scc12", "Result": "13.8 µM (active)"}

* * *

Test system: CHO
Assay: cytotoxicity in TLR9-MyD88 CHO cells, dose response, cytotoxicity control for TLR9-MyD88 binding inhibitor project, cell-based, luminescence (AID 588339);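 note: CHO cells stably coexpressing TLR9 and MyD88 fusions from primary screen; compound exposure lasted 48 hours before viability readout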
Assay type: functional, hamster
Settings: Cricetulus griseus
The source made the active and inactive calls.
Outcome codes: active, inactive

{"Substance smiles": "CC(=O)Nc1ccc2c(c1)Cc1cc(N3C(=O)C=CC3=O)ccc1-2", "Cat": "active"}
{"Substance smiles": "Cc1c(Nc2cc(Cl)c3nonc3c2[N+](=O)[O-])c(=O)n(-c2ccccc2)n1C", "Cat": "active"}
{"Substance smiles": "Cc1ccccc1NC(=O)/C=C/c1ccc([N+](=O)[O-])s1", "Cat": "active"}
{"Substance smiles": "O=[N+]([O-])c1ccc(N(c2ccccc2)c2ccccc2)cc1", "Cat": "inactive"}

* * *

Target: Protein skinhead-1 (Caenorhabditis elegans, UniProt P34707)
Sequence (P34707 whole entry): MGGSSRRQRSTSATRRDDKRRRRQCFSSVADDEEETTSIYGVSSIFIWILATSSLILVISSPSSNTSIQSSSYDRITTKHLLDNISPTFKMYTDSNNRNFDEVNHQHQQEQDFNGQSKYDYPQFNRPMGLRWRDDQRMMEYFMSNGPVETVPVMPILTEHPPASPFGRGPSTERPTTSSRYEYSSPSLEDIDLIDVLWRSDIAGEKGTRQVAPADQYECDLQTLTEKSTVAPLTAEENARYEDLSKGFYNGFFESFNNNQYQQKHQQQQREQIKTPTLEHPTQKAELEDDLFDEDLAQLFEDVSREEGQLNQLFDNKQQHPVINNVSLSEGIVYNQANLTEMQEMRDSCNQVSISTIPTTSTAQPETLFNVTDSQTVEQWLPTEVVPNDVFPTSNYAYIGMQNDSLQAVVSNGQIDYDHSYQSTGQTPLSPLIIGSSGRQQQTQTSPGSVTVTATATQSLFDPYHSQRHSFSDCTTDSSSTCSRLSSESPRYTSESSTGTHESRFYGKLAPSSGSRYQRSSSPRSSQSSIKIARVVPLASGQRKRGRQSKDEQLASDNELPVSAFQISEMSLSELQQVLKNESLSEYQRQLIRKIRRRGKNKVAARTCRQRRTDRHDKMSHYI
Type: functional
The source made the active and inactive calls.
Possible outcomes: active, inactive

{"Substance smiles": "CCCOC(=O)c1ccc(NC(=O)/C=C/c2cccs2)cc1", "Cat": "inactive"}
{"Substance smiles": "Cc1cc(Br)cn2c(Cc3ccsc3)c(-c3ccccc3)nc12", "Cat": "inactive"}
{"Substance smiles": "c1ccc(SCc2cc(-c3ccccc3)no2)cc1", "Cat": "active"}
{"Substance smiles": "CN1/C(=C/C(=O)CSc2ccccc2C(=O)O)C(C)(C)c2ccccc21", "Cat": "inactive"}
{"Substance smiles": "Cc1cc2cc(CNC(=O)C3CC3)ccc2n1C", "Cat": "inactive"}
{"Substance smiles": "Cc1cc2cc(CN=C(S)NCc3ccccc3)ccc2n1C", "Cat": "inactive"}
{"Substance smiles": "O=C(Nc1cccc(Cl)c1)c1cc(-c2ccco2)on1", "Cat": "inactive"}
{"Substance smiles": "CCCCCCn1c(N2CCN(c3cccc(Cl)c3)CC2)nc2c1c(=O)[nH]c(=O)n2C", "Cat": "inactive"}
{"Substance smiles": "c1ccc(CSc2ncnc3sccc23)cc1", "Cat": "inactive"}

* * *

Target: Streptokinase A (Streptococcus pyogenes serotype M1, UniProt P10520)
Sequence (P10520 whole entry): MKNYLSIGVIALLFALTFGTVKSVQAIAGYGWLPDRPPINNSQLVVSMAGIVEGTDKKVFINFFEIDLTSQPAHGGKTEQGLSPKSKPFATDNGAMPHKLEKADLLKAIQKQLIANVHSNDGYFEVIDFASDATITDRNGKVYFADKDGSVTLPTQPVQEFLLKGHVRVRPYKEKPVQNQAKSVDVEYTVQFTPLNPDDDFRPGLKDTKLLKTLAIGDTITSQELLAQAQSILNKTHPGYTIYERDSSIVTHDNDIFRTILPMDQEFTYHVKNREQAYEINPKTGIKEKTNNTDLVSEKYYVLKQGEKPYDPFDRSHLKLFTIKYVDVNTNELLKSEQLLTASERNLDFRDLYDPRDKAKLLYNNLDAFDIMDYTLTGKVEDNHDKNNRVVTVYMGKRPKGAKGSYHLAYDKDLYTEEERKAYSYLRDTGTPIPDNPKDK
Assay: S. pyogenes streptokinase expression inhibitors, potency, dose response, plasminogen activation absorbance, OD405 (AID 1914);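 note: secreted streptokinase activity via plasminogen activation per viability signal from cell pellet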
Assay type: functional, Streptococcus pyogenes M1 GAS
Calls of active or inactive are those of the source.
Listing: EC50 of selected compounds

{"Compound": "CCCCn1c(O)c(N=NC(=O)c2ccccc2NS(=O)(=O)c2cccs2)c2ccccc21", "EC50": "> 150 µM (not active)"}
{"Compound": "Clc1ccc(-c2nnnn2-c2ccc(Cl)c(Cl)c2)cc1Cl", "EC50": "8.28 µM (active)"}
{"Compound": "OC(COc1cccc2ccccc12)CN1CCN(c2ccc(Cl)cc2)CC1 (stereo unspecified)", "EC50": "31.1 µM (active)"}
{"Compound": "C=C(C)C1Cc2c(C)nn(-c3nc(C)cc(C)n3)c2C1 (stereo unspecified)", "EC50": "> 150 µM (not active)"}
{"Compound": "CCCc1nc2oc3c(Cl)ncnc3c2c2c1CCCC2", "EC50": "> 150 µM (not active)"}
{"Compound": "Cc1ccc(S(=O)(=O)Nc2cccc3cccnc23)c([N+](=O)[O-])c1", "EC50": "> 150 µM (not active)"}
{"Compound": "CC1CCc2c(C(=O)Nc3cccc(-c4nn[nH]n4)c3)csc2C1 (stereo unspecified)", "EC50": "27.3 µM (active)"}
{"Compound": "O=C(Nc1nnc(C2CCCCC2)s1)c1ccc(Br)s1", "EC50": "> 150 µM (not active)"}
{"Compound": "CCOC(=O)c1ccc(NC(=S)NN)cc1", "EC50": "> 150 µM (not active)"}
{"Compound": "COC(=O)c1c(NC(=O)COc2ccc(Cl)cc2)sc2c1CC(C)(C)NC2(C)C", "EC50": "23.7 µM (active)"}
{"Compound": "Sc1nnc(C2CCCCC2)n1/N=C/c1cccc(Cl)c1Cl", "EC50": "> 150 µM (not active)"}
{"Compound": "C=CCn1c(SC/C(O)=C(/C#N)C(C)=N)nc2sc(C)c(C)c2c1=O", "EC50": "> 150 µM (not active)"}
{"Compound": "Oc1c(C(Nc2cccc(C(F)(F)F)c2)c2cccnc2)ccc2cccnc12 (stereo unspecified)", "EC50": "> 150 µM (not active)"}
{"Compound": "Cc1cc(N2CCN(c3ccccc3Cl)CC2)n2cc(-c3ccccc3)nc2n1", "EC50": "> 150 µM (not active)"}
{"Compound": "COc1ccc2nc3c(O)n(/N=C/c4ccc(OC)c(CN5CCCC5)c4)c(C)nc-3c2c1", "EC50": "32.3 µM (active)"}
{"Compound": "CC(C)c1nc(NCc2ccccc2)c(C#N)c2c1CCCC2", "EC50": "1.96 µM (active)"}
{"Compound": "COC(=O)c1c(NC(NC(=O)C(C)(C)C)C(Cl)(Cl)Cl)sc2c1CCC2 (stereo unspecified)", "EC50": "2.8 µM (active)"}
{"Compound": "Cc1csc(NC(=O)COCC(=O)O)c1-c1nc2ccccc2s1", "EC50": "> 150 µM (not active)"}
{"Compound": "C/C(=N\\Nc1nc2ccccc2s1)c1ccc2c(c1)OCO2", "EC50": "> 150 µM (not active)"}
{"Compound": "Cc1cccc(NCc2nc3ccccc3n2Cc2ccccc2)c1", "EC50": "> 150 µM (not active)"}
{"Compound": "N#CC1=C(c2ccccc2)/C(=C/c2ccccc2)OC1=O", "EC50": "2.38 µM (active)"}
{"Compound": "Fc1cccc2sc(Nc3nnc(-c4ccco4)o3)nc12", "EC50": "> 150 µM (not active)"}
{"Compound": "CCc1ccc(NC2=NCC(c3ccccc3)S2)cc1 (stereo unspecified)", "EC50": "> 150 µM (not active)"}
{"Compound": "CCCCCCCCCC[N+](C)(C)CC/C=C1/c2ccccc2Sc2ccc(Cl)cc21", "EC50": "6.63 µM (active)"}
{"Compound": "CC1CC(NC(=O)c2c(O)n3ccsc3nc2=O)CC(C)(C)C1 (stereo unspecified)", "EC50": "14.5 µM (active)"}
{"Compound": "C=C(CC1([C@@H](NP(=O)(c2ccccc2)c2ccccc2)[C@H]2C[C@@H]2CCCC)CC1)c1ccccc1", "EC50": "> 150 µM (not active)"}
{"Compound": "COc1cc(/C=C/c2cc[n+](C)cc2)ccc1OCC(=O)Nc1ccc(Cl)c(Cl)c1", "EC50": "> 150 µM (not active)"}
{"Compound": "COCCn1c(N)c(C(=O)Nc2sc3c(c2C(=O)OC)CCCC3)c2nc3ccccc3nc21", "EC50": "> 150 µM (not active)"}
{"Compound": "CCc1ccc(/C=C2/SC(=S)N(CC(=O)Nc3nc4ccccc4s3)C2=O)cc1", "EC50": "> 150 µM (not active)"}
{"Compound": "N#Cc1c(N)nc(Sc2ccc(Cl)cc2)c(C#N)c1-c1ccccc1Cl", "EC50": "13.2 µM (active)"}
{"Compound": "Cc1cccc(N2CCN(C(=O)c3cc4n(n3)C(C(F)(F)F)CC(c3ccco3)N4)CC2)c1C (stereo unspecified)", "EC50": "16.7 µM (active)"}
